Target: T1, PDZD2_2, O15018
T1 sequence (O15018 329-429, limits assumed, looked up): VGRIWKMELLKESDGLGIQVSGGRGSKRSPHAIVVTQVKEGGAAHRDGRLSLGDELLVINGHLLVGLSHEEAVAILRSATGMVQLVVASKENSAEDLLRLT
Assay: holdup assay
Design: key: below the threshold = too weak to quantify, mostly under pKd 3.1 to 4
Details: plain residues with an end cap or a label only (N-terminal biotin on a linker: ado-ado)
recorded-metric: pKd

1. VYPNAKVELV [PDLIM4_iso2, P50479;P50479-1]; below the threshold
2. EKKTLIGIKL [GOT1L1, Q8NHS2]; below the threshold
3. EALLQMESVA [CAVIN3, Q969G5]; below the threshold
4. QPCFNKLFPL [LPXN, O60711]; below the threshold
5. RRRESYSTTV [EVI5, O60447]; 4.7
6. TACCHSETVV [TGFA, P01135]; 4.32
7. SNAGNTATKA [NOSTRIN, Q8IVI9]; below the threshold
8. AKPSRISTVV [IQSEC2, Q5JU85]; 4.29

Source: paper PMC9482650
